Value source: the OPERA property sets (Mansouri et al. 2018)

QUANTITY_KIND: logP

compound="CNC12c3ccccc3CC1CCCC2C (stereo unspecified)" reported_value=3.44
compound="CNC12CCCCC1c1ccccc1C2 (stereo unspecified)" reported_value=3.43
compound="CCNC12c3ccccc3CC1CCCC2C (stereo unspecified)" reported_value=3.8
compound="CNC12CCCCCC1Cc1ccccc12 (stereo unspecified)" reported_value=3.77
compound="CNC12CCCCC1Cc1cc(OC)ccc12 (stereo unspecified)" reported_value=3.51
compound="CNCC1CCC2(NC)c3ccccc3CC2C1 (stereo unspecified)" reported_value=2.48
compound="CNC12CCC(CN)CC1Cc1ccccc12 (stereo unspecified)" reported_value=1.84
compound="CNC12CCCCC1Cc1ccccc12 (stereo unspecified)" reported_value=3.38
compound="C=C1c2ccccc2C2(NC)CCCCC12 (stereo unspecified)" reported_value=3.79
compound="CNC12CCCCC1Cc1ccc(OC)cc12 (stereo unspecified)" reported_value=3.54
compound="NC12CCCC1Cc1ccccc12 (stereo unspecified)" reported_value=2.58
